Assay: purified protein yield per well (BCA); higher = higher soluble expression
VALUE_KIND: purified protein yield per well (µg)
# value in µg; strip the unit string

purified protein yield per well reading for AANPYQRGPAPTAASVAAVTGPFATASVSVPRGNGFGGGVIYYPTDTSQGTFGGLAISPGLNGTWPGIAWLGSRLASQGFIVFGIETNNLNDSPTSRGTQLLAALDYLAQRSSVRSRLDPGRLAVAGHSMGGGGALDAALRRPSLKAAIGNAPYLPSNTLAGNRVPTLIYAMQNDTLVPPSRLTSLYNTIPATTERAYLEITGAGHNYIGQPSTTLARTMIPWLKIFIDNDTRFSQFLCPLADQSGIRQYRSSCPLVPATTRALTAAAG [DP043] : 92
